Test system: male Wister rats
Assay: water lick conflict test, learning improvement activity (latent time)
Format: in vivo
Conditions: 40 mg/kg P.O., time until first drinking water, average of no-drug rats defined as 100 (n = 5)
Hi, to clarify the labels: rule met covers Latent Time from 200 upward, rule not met covers anything below 200.

Below are worked cases with known answers.
Task item: In plain terms: is recorded Latent Time at least 200 for CCOC(=O)c1cc2c(cn1)[nH]c1ccccc12 ?
Reply: rule met

Task item: Also Clc1ccc2sc3c(c2c1)CCNC3 ?
Reply: rule not met

Task item: Also CCNC(=O)C1Cc2c(sc3ccccc23)CN1 (centres unmarked) ?
Reply: rule met

Task item: Also CCCCCCNC(=O)C1Cc2c(sc3ccccc23)CN1 (centres unmarked) ?
Reply: rule met

Please find the next molecule below.
Task item: In plain terms: is recorded Latent Time at least 200 for CCOC(=O)c1cc2c(cn1)sc1ccccc12 ?
Reply: rule not met
